Target: Cytochrome P450 1A2 (Homo sapiens)
Experiment: Cytochrome panel assay with activity outcomes
Conditions: recombinant CYP, pro-luciferin dealkylation, luminescence, p450-cyp1a2; series mostly up to 57.1 µM
Out of some 16,000 compounds screened, about 5,700 (36%) were called active. Roughly 24% stayed inconclusive and do not appear here. The call rests on the fitted dose curve; in most records, active means well fitted curve in the direction sought with a large enough effect; inconclusive means small, poorly fitted or top-dose-only effect, or effect the other way; inactive means no such curve, though single readings can be large or run the other way. Some of the results follow.
Respond with a class label; see active, inactive

Ask: Outcome? "O=c1c(Cl)c(N2CCN(S(=O)(=O)c3ccc(F)cc3)CC2)cnn1-c1cccc(Cl)c1"
Result: inactive

Ask: Now consider "CCOC(=O)c1c(-c2ccccc2)csc1NC(=O)c1cccc(N2C(=O)CCC2=O)c1" .
Result: active

Ask: Now consider "CN(Cc1ccccc1)S(=O)(=O)c1ccc(OCC(=O)N2CCOCC2)cc1" .
Result: inactive

Ask: Now consider "CCNCCCNCCCNCCCNCC" .
Result: inactive

Ask: Now consider "CCOC(=O)c1c(-c2cccc(C)c2)csc1NC(=O)c1c(-c2ccccc2)noc1C" .
Result: inactive

Ask: Now consider "CC(=O)Nc1c(I)c(C(=O)N[C@H]2[C@@H](O)[C@H](O)[C@H](CO)O[C@@H]2O)c(I)c(N(C)C(C)=O)c1I" .
Result: inactive

Ask: Now consider C[C@H]1[C@@H](O)[C@@H](C)\C=C/C=C\C=C/C=C\C=C/C=C\C=C/[C@@H](O[C@H]2O[C@@H](C)[C@@H](O)[C@@H](N)[C@@H]2O)C[C@@H]2O[C@](O)(C[C@@H](O)C[C@@H](O)[C@@H](O)CC[C@@H](O)C[C@@H](O)CC(=O)O[C@H]1C)C[C@@H](O)[C@H]2C(=O)O (stereo in doubt) .
Result: inactive

Ask: Now consider "O=C(CC(=O)c1ccncc1)c1ccccc1" .
Result: active

Ask: Now consider CCOC(=O)c1c(-c2ccc(C)cc2)csc1NC(=O)C1CC=CCC1C(=O)O (centres undefined) .
Result: active

Ask: Now consider "O=C(c1ccncc1)N1CCC2(CCN(Cc3ccccc3)CC2)CC1" .
Result: inactive

Ask: Now consider "Fc1ccc(-c2cn3cc(C(F)(F)F)cc(Cl)c3n2)cc1" .
Result: active

Ask: Now consider "Cc1cccc(NC(=O)c2onc3c2CCCC3)c1C" .
Result: active

Ask: Now consider "CC(=O)N1CCC2(CC1)CCN(c1ccccn1)CC2" .
Result: inactive

Ask: Now consider "O=C(COc1ccc(Cl)cc1)N1CCN(Cc2ccc3c(c2)OCO3)CC1" .
Result: active

Ask: Now consider "C[C@H](O)[C@H](O)[C@@H]1CNc2nc(N)[nH]c(=O)c2N1" .
Result: inactive

Ask: Now consider "c1ccc2sc(N3CCN(Cc4ccc5c(c4)OCO5)CC3)nc2c1" .
Result: active

Ask: Now consider CCC(C)N1C(=O)S/C(=C/c2ccc(Sc3nc4ccccc4[nH]3)o2)C1=O (centres undefined) .
Result: active

Ask: Now consider Cc1cccc(NC(=S)N2CCC(N(C)CC3CCCO3)CC2)c1C (centres undefined) .
Result: inactive

Ask: Now consider CCOC(=O)c1c(NC(=O)C2C3CCC(O3)C2C(=O)O)sc(C)c1-c1ccc(C)cc1 (centres undefined) .
Result: inactive

Values were extracted from PubChem BioAssay AID1851.
